Assay system: UniProt P10415
Method summary: Bcl-2 competition binding (fluorescence polarization) assay
Assay context: fluorescein labeled BH3 peptide 15 nM, Bcl-2 protein 30 nM, 3 hours of incubation at room temperature
Structures can show the parent of a compound that is named as a salt.
Each entry below carries its recorded IC50.
Readout kind: IC50 (nM)

• CC(C)Oc1ccccc1[C@@H]1CCCN1C1CC2(CCN(c3ccc(C(=O)NS(=O)(=O)c4ccc(NCC5(F)CCOCC5)c([N+](=O)[O-])c4)c(N4c5cc6cc[nH]c6nc5O[C@@H]5COC[C@H]54)c3)CC2)C1 = 0.217
• CS(=O)(=O)Nc1ccccc1[C@@H]1CCCN1C1CC2(CCN(c3ccc(C(=O)NS(=O)(=O)c4ccc(NCC5CCOCC5)c([N+](=O)[O-])c4)c(N4c5cc6cc[nH]c6nc5O[C@@H]5COC[C@H]54)c3)CC2)C1 = 14.8
• CP(C)(=O)c1ccccc1[C@@H]1CCCN1C1CC2(CCN(c3ccc(C(=O)NS(=O)(=O)c4ccc(NCC5CCOCC5)c([N+](=O)[O-])c4)c(N4c5cc6cc[nH]c6nc5O[C@@H]5COC[C@H]54)c3)CC2)C1 = 1.39
• COC1(C)CCC(CNc2ccc(S(=O)(=O)NC(=O)c3ccc(N4CCC5(CC4)CC(N4CCC[C@H]4c4ccccc4C(C)C)C5)cc3N3c4cc5cc[nH]c5nc4O[C@@H]4COC[C@H]43)cc2[N+](=O)[O-])CC1 (stereo partly shown) [Example 36, hydrochloride] = 0.31

----------
Assay system: Bcl-2 (Homo sapiens (Human), UniProt P10415)
Sequence (P10415 whole entry): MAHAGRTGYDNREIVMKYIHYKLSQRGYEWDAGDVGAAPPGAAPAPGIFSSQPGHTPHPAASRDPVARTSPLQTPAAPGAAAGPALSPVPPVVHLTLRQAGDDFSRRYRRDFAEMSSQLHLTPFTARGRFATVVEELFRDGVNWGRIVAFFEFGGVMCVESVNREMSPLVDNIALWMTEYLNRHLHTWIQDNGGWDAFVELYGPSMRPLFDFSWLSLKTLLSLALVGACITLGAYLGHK
Method summary: Bcl-2 competition binding (fluorescence polarization) assay
Assay context: fluorescein labeled BH3 peptide 15 nM, Bcl-2 protein 30 nM, 3 hours of incubation at room temperature
Counter-ions that a name gives are not always drawn.
Readout kind: IC50 (nM)

• O=C(NS(=O)(=O)c1ccc(NCC2CCOCC2)c([N+](=O)[O-])c1)c1ccc(N2CCC3(CC2)CC(N2CCC[C@H]2c2ccccc2-c2ccccn2)C3)cc1N1c2cc3cc[nH]c3nc2O[C@@H]2COC[C@H]21 [Example 18] = 0.42
• CC(C)c1ccsc1[C@@H]1CCCN1C1CC2(CCN(c3ccc(C(=O)NS(=O)(=O)c4ccc(NCC5CCOCC5)c([N+](=O)[O-])c4)c(N4c5cc6cc[nH]c6nc5O[C@@H]5COC[C@H]54)c3)CC2)C1 [Example 63, hydrochloride] = 0.314
• O=C(NS(=O)(=O)c1ccc(NCC2CCOCC2)c([N+](=O)[O-])c1)c1ccc(N2CCC3(CC2)CC(N2CCC[C@H]2c2ccccc2)C3)cc1N1c2cc3cc[nH]c3nc2O[C@@H]2COC[C@H]21 [Example 12, hydrochloride] = 0.161
• C=C(C)c1ccccc1[C@@H]1CCCN1C1CC2(CCN(c3ccc(C(=O)NS(=O)(=O)c4ccc(NCC5CCOCC5)c([N+](=O)[O-])c4)c(N4c5cc6cc[nH]c6nc5O[C@@H]5COC[C@H]54)c3)CC2)C1 [Example 5, hydrochloride] = 0.067

----------
Assay system: UniProtKB P10415
Method summary: Bcl-2 competition binding (fluorescence polarization) assay
Assay context: fluorescein labeled BH3 peptide 15 nM, Bcl-2 protein 30 nM, 3 hours of incubation at room temperature
Structures can show the parent of a compound that is named as a salt.
Each entry below carries its recorded IC50.
Readout kind: IC50

- COc1ccccc1[C@@H]1CCCN1C1CC2(CCN(c3ccc(C(=O)NS(=O)(=O)c4ccc(NCC5CCOCC5)c([N+](=O)[O-])c4)c(N4c5cc6cc[nH]c6nc5O[C@@H]5COC[C@H]54)c3)CC2)C1 [Example 16]: 90 pM
- Cc1ccccc1[C@@H]1CCCN1C1CC2(CCN(c3ccc(C(=O)NS(=O)(=O)c4ccc(NCC5(F)CCOCC5)c([N+](=O)[O-])c4)c(N4c5cc6cc[nH]c6nc5O[C@@H]5COC[C@H]54)c3)CC2)C1 [Example 38]: 202 pM
- Cc1ccccc1[C@H]1COCCN1C1CC2(CCN(c3ccc(C(=O)NS(=O)(=O)c4ccc(NCC5CCOCC5)c([N+](=O)[O-])c4)c(N4c5cc6cc[nH]c6nc5O[C@@H]5COC[C@H]54)c3)CC2)C1 [Example 51]: 1080 pM
- C=Cc1ccccc1[C@@H]1CCCN1C1CC2(CCN(c3ccc(C(=O)NS(=O)(=O)c4ccc(NCC5CCOCC5)c([N+](=O)[O-])c4)c(N4c5cc6cc[nH]c6nc5O[C@@H]5COC[C@H]54)c3)CC2)C1 [Example 6, hydrochloride]: 83 pM
- CC(C)Oc1ccccc1[C@@H]1CCCN1C1CC2(CCN(c3ccc(C(=O)NS(=O)(=O)c4ccc(NCC5CCOCC5)c([N+](=O)[O-])c4)c(N4c5cc6cc[nH]c6nc5O[C@H]5COC[C@H]54)c3)CC2)C1 [Example 54]: 586 pM
- O=C(NS(=O)(=O)c1ccc(NCC2CCOCC2)c([N+](=O)[O-])c1)c1ccc(N2CCC3(CC2)CC(N2CCC[C@H]2c2ccc(Cl)cc2)C3)cc1N1c2cc3cc[nH]c3nc2O[C@@H]2COC[C@H]21 [Example 34]: 3500 pM
- CC(C)S(=O)(=O)c1ccccc1[C@@H]1CCCN1C1CC2(CCN(c3ccc(C(=O)NS(=O)(=O)c4ccc(NCC5CCOCC5)c([N+](=O)[O-])c4)c(N4c5cc6cc[nH]c6nc5O[C@@H]5COC[C@H]54)c3)CC2)C1 [Example 28]: 31200 pM
- Cc1ccccc1[C@@H]1CCCN1C1CC2(CCN(c3ccc(C(=O)NS(=O)(=O)c4ccc(NCC5CCOCC5)c([N+](=O)[O-])c4)c(N4c5cc6cc[nH]c6nc5O[C@@H]5COC[C@H]54)c3)CC2)C1 [Example 4]: 183 pM
- CC(C)(C)c1ccccc1[C@@H]1CCCN1C1CC2(CCN(c3ccc(C(=O)NS(=O)(=O)c4ccc(NCC5CCOCC5)c([N+](=O)[O-])c4)c(N4c5cc6cc[nH]c6nc5O[C@@H]5COC[C@H]54)c3)CC2)C1 [Example 46]: 398 pM

----------
Assay system: Bcl-2 (Homo sapiens (Human), UniProt P10415)
Method summary: Bcl-2 competition binding (fluorescence polarization) assay
Assay context: fluorescein labeled BH3 peptide 15 nM, Bcl-2 protein 30 nM, 3 hours of incubation at room temperature
Method: Biological Example 1: Bcl-2 Competition Binding (Fluorescence Polarization) Assay The fluorescence-labeled 23 amino acid peptide BH3 was purchased from CalBiochem ([…]). […] The polarization degree (mP) value was determined by BioTek Synergy II with background subtraction after 3 hours of incubation at room temperature. IC50 was calculated using Prism software with sigmoidal dose-response curve fitting. […]
pIC50: −log10 of the molar value. Counter-ions that a name gives are not always drawn.
Each entry below carries its recorded pIC50.
Readout kind: pIC50

* Cc1ccccc1[C@@H]1CCCN1C1CC2(CCN(c3ccc(C(=O)NS(=O)(=O)c4ccc(NCC5CCC(C)(O)CC5)c([N+](=O)[O-])c4)c(N4c5cc6cc[nH]c6nc5O[C@@H]5COC[C@H]54)c3)CC2)C1 (stereo partly drawn) [Example 40] | 9.70
* CC(C)c1ccccc1[C@@H]1CCCN1C1CC2(CCN(c3ccc(C(=O)NS(=O)(=O)c4ccc(NCC5CCOCC5)c([N+](=O)[O-])c4)c(N4c5cc6cc[nH]c6nc5O[C@@H]5COC[C@H]54)c3)CC2)C1 | 10.00
* CC(C)Oc1ccccc1[C@@H]1CCCN1C1CC2(CCN(c3ccc(C(=O)NS(=O)(=O)c4ccc(NCC5CCOCC5)c([N+](=O)[O-])c4)c(N4c5cc6cc[nH]c6nc5O[C@@H]5COC[C@@H]54)c3)CC2)C1 | 9.22
* Cc1ccccc1[C@@H]1COCCCN1C1CC2(CCN(c3ccc(C(=O)NS(=O)(=O)c4ccc(NCC5CCOCC5)c([N+](=O)[O-])c4)c(N4c5cc6cc[nH]c6nc5O[C@@H]5COC[C@H]54)c3)CC2)C1 | 9.37
* CC(C)c1ccccc1[C@@H]1CCCN1C1CC2(CCN(c3ccc(C(=O)NS(=O)(=O)c4ccc(NCC5CCOCC5)c([N+](=O)[O-])c4)c(N4c5cc6cc[nH]c6nc5O[C@H]5COC[C@@H]54)c3)CC2)C1 | 9.66
* CCc1ccccc1[C@@H]1CCCN1C1CC2(CCN(c3ccc(C(=O)NS(=O)(=O)c4ccc(NCC5CCOCC5)c([N+](=O)[O-])c4)c(N4c5cc6cc[nH]c6nc5O[C@@H]5COC[C@H]54)c3)CC2)C1 [Example 7, hydrochloride] | 10.18
